- System under test: recombinant human PDGF-BB (human, UniProt P01127 82-190)
- Sequence (P01127 82-190 limits assumed): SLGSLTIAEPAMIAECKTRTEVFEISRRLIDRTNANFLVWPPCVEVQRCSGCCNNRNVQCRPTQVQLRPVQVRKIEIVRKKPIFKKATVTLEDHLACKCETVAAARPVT
- Procedure text: cell-based or functional assay
Observable: hPDGF-BB IC50 (nM), hPDGF-BB-induced NIH-3T3 cell proliferation

May I ask what hPDGF-BB IC50 (nM), hPDGF-BB-induced NIH-3T3 cell proliferation has been recorded for hBDI-5H1.5 (antibody, V domains shown) VH: EVTLKESGPALVKPTQTLTLTCTFSGFSLSTFGMGVGWIRQPPGKALEWLANIWWDDDKYYNPSLKNRLTISKDTSKNQAVLTITNMDPVDTATYYCARISTGISSYYVMDAWGQGTTVTVSS VL: NFMLTQPHSVSESPGKTVTISCERSSGDIGDTYVSWYQQRPGSSPTTVIYGNDQRPSGVPDRFSGSIDSSSNSASLTISGLKTEDEADYYCQSYDSDIDIVFGGGTKLTVL ? < 10 nM

Queued: hBDI-9E8.4 (antibody, V domains shown, Humanized IgG from pHybE expression vectors, made in HEK293 6E and protein A purified; also called h9E8.4) VH: EVTLRESGPALVKPTQTLTLTCTFSGFSLSTYGMGVGWIRQPPGKALEWLANIWWDDDKYYNPSLKNRLTISKDTSKNQVVLTMTNMDPVDTATYYCARIESIGTTYSFDYWGQGTMVTVSS VL: EFVLTQSPGTLSLSPGERATLSCERSSGDIGDSYVSWYQQKPGQAPRLVIYADDQRPSGIPDRFSGSGSGTDFTLTISRLEPEDFAVYYCQSYDINIDIVFGGGTKVEIK 0.061 nM

Queued: hBDI-9E8.10 (antibody, V domains shown) VH: EVTLRESGPALVKPTQTLTLTCTFSGFSLSTYGMGVGWIRQPPGKALEWLANIWWDDDKYYNPSLKNRLTISKDTSKNQAVLTITNMDPVDTATYYCARIESIGTTYSFDYWGQGTTVTVSS VL: DFQLTQSPSSLSASVGDRVTITCERSSGDIGDSYVSWYQQKPGKAPKNVIYADDQRPSGVPSRFSGSGSGNSASLTISSLQPEDFATYYCQSYDINIDIVFGQGTKVEIK 0.562 nM

Queued: hBDI-9E8.1 (antibody, V domains shown) VH: EVTLRESGPALVKPTQTLTLTCTFSGFSLSTYGMGVGWIRQPPGKALEWLANIWWDDDKYYNPSLKNRLTISKDTSKNQVVLTMTNMDPVDTATYYCARIESIGTTYSFDYWGQGTMVTVSS VL: NFMLTQPHSVSESPGKTVTISCERSSGDIGDSYVSWYQQRPGSSPTTVIYADDQRPSGVPDRFSGSIDSSSNSASLTISGLKTEDEADYYCQSYDINIDIVFGGGTKLTVL > 5 nM

Queued: hBDI-5H1.1 (antibody, V domains shown) VH: EVTLRESGPALVKPTQTLTLTCTFSGFSLSTFGMGVGWIRQPPGKALEWLANIWWDDDKYYNPSLKNRLTISKDTSKNQVVLTMTNMDPVDTATYYCARISTGISSYYVMDAWGQGTTVTVSS VL: NFMLTQPHSVSESPGKTVTISCERSSGDIGDTYVSWYQQRPGSSPTTVIYGNDQRPSGVPDRFSGSIDSSSNSASLTISGLKTEDEADYYCQSYDSDIDIVFGGGTKLTVL < 10 nM

Queued: hBDI-5H1.16 (antibody, V domains shown) VH: EVTLKESGPALVKPTQTLTLTCTFSGFSLSTFGMGVGWIRQPPGKGLEWLANIWWDDDKYYNPSLKNRLTISKDTSNSQAVLTITNMDPVDTATYYCARISTGISSYYVMDAWGQGTTVTVSS VL: EFVLTQSPGTLSLSPGERATLSCERSSGDIGDTYVSWYQQKPGQPPRNVIYGNDQRPSGVPDRFSGSGSGTDFTLTISRLEPEDFAVYFCQSYDSDIDIVFGGGTKVEIK < 10 nM

Queued: hBDI-9E8.8 (antibody, V domains shown) VH: EVTLRESGPALVKPTQTLTLTCTFSGFSLSTYGMGVGWIRQPPGKGLEWLANIWWDDDKYYNPSLKNRLTISKDTSKNQAVLTITNMDPVDTATYYCARIESIGTTYSFDYWGQGTMVTVSS VL: EFVLTQSPGTLSLSPGERATLSCERSSGDIGDSYVSWYQQKPGQAPRLVIYADDQRPSGIPDRFSGSGSGTDFTLTISRLEPEDFAVYYCQSYDINIDIVFGGGTKVEIK 0.105 nM

Queued: hBDI-5H1.6 (antibody, V domains shown) VH: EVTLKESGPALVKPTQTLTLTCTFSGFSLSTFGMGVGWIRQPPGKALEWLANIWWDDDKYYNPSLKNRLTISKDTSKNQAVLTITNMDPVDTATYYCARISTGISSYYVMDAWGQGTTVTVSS VL: NFMLTQPHSVSESPGKTVTISCERSSGDIGDTYVSWYQQRPGSPPTNVIYGNDQRPSGVPDRFSGSIDSSSNSASLTISGLKTEDEADYFCQSYDSDIDIVFGGGTKLTVL < 10 nM

Queued: hBDI-9E8.4 half body (other) VH: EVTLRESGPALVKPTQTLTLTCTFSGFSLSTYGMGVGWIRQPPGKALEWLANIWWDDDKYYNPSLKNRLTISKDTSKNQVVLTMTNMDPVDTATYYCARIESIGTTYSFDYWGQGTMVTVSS VL: EFVLTQSPGTLSLSPGERATLSCERSSGDIGDSYVSWYQQKPGQAPRLVIYADDQRPSGIPDRFSGSGSGTDFTLTISRLEPEDFAVYYCQSYDINIDIVFGGGTKVEIK > 5 nM

Queued: hBFU-3E2.1 (antibody, V domains shown) VH: EVQLVQSGAEVKKPGSSVKVSCKASGYTFTESYMYWVKQAPGQGLELIGRIDPEDGSTDYVEKFKNKATLTADKSTSTAYMELSSLRSEDTAVYFCARFGARSYFYPMDAWGQGTTVTVSS VL: ETVLTQSPATLSLSPGERATLSCRASESVSTLMHWYQQKPGQQPRLLIYGASNLESGVPARFSGSGSGTDFTLTISSLEPEDFAVYFCQQSWNDPWTFGGGTKVEIK 0.183 nM
